# experimental.system: T1, IL1-RAP (antigen of the kinetic measurements of Tables 5A and 5B) (human, UniProt Q9NPH3 21-359, limits assumed)
# T1 sequence: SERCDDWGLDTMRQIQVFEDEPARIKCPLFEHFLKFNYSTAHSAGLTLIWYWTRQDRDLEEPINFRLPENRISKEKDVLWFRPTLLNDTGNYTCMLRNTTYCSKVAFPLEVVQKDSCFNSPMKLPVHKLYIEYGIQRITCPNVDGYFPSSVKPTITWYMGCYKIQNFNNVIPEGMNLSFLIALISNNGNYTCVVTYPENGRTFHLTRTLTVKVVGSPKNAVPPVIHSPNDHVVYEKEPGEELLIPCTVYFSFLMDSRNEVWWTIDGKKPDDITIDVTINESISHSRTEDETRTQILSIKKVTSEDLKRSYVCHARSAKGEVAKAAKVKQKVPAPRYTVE
# assay.details: kinetics, Table 5A; method and antigen form not stated
outcome.measure: kon (M⁻¹ s⁻¹)
Express the result in M⁻¹ s⁻¹ but write the number alone.

-- ask Tell me the measured kon of humanized clone of 54.9D7 hH3L3 (antibody, V domains shown, Humanized; also called 54.9D7 H3L3) VH: QVQLVQSGAEVKKPGASVKLSCKASGYIFITYWMNWVRQAPGQGLEWVGQIFPASGTTYYAQKFQGRATLTVDTSTSTAYMELSSLRSEDTAVYYCARTDFYRYDGGYALDYWGQGTLLTVSS VL: DIQLTQSPSSLSASVGDRATITCRASQSVSTSGYSSMHWYQQKPGKAPKLLIKYASDLESGVPSRFSGSGSGTDFTLTISSVQPEDFATYYCHHSWGIPMYTFGQGTKLEIKR , please.
-- reply 177000

-- ask Tell me the measured kon of chimeric 54.9D7 (antibody, V domains shown, Chimeric antibody; also called Chi54.9D7) VH: HVQLQQSGPELVRPGASVKLSCKASGYIFITYWMNWVKQRPGQGLEWVGQIFPASGTTYYNELFEGKATLTVDTSSNTAYMHLTSLTSEDSAVYYCARTDFYRYDGGYALDYWGQGTSLTVSS VL: DIVLTQSPISLAVFLGQRATISCRASQSVSTSGYSSMHWYQQKAGQPPKLLIKYASDLESGVPVRFSGSGSGTDFILNIHPVEVEDIATYYCHHSWGIPMYTFGGGTKLEIKR , please.
-- reply 143000

-- ask Tell me the measured kon of humanized clone of 54.9D7 hH1L3 (antibody, V domains shown, Humanized; also called 54.9D7 H1L3) VH: QVQLVQSGAEVKKPGASVKVSCKASGYIFITYWMNWVRQAPGQGLEWMGQIFPASGTTYYAQKFQGRVTMTRDTSTSTVYMELSSLRSEDTAVYYCARTDFYRYDGGYALDYWGQGTLVTVSS VL: DIQLTQSPSSLSASVGDRATITCRASQSVSTSGYSSMHWYQQKPGKAPKLLIKYASDLESGVPSRFSGSGSGTDFTLTISSVQPEDFATYYCHHSWGIPMYTFGQGTKLEIKR , please.
-- reply 136000

-- ask Tell me the measured kon of humanized clone of 54.9D7 hH2L3 (antibody, V domains shown, Humanized; also called 54.9D7 H2L3) VH: QVQLVQSGAEVKKPGASVKVSCKASGYIFITYWMNWVRQAPGQGLEWVGQIFPASGTTYYAQKFQGRVTMTVDTSTSTVYMELSSLRSEDTAVYYCARTDFYRYDGGYALDYWGQGTLVTVSS VL: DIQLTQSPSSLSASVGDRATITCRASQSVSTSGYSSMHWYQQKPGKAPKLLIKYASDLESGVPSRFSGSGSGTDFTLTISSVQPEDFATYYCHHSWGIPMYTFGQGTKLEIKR , please.
-- reply 141000

The values you see were collected from patent US20190338038A1.
